# reported normalized growth; entries follow
- Assay Details: chemical genetic growth profiling, strain panel (AID 1159580);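 note: tested at 20 µM; growth read once vehicle control cultures reached saturation at 30 °C; 1 = growth at the plate median or of vehicle wells; lower values mean less growth of the strain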
- Test Conditions: S. cerevisiae deletion strains, growth OD, locus YNL248C, strain rpa49, stronger effect = lower value
Screen size: about 5,500 compounds; about 2,000 (36%) were called active. About 18% were inconclusive and are not listed. The list shows a part of the results.
No unit in the answer, only the number.

Previously resolved entries follow.
CNC(C)C(O)c1ccccc1 (stereo unspecified); 1.01
C=C[C@H]1CN2CC[C@H]1C[C@@H]2[C@@H](OC(=O)OCC)c1ccnc2ccc(OC)cc12; 1.02
NC(N)=NC(=O)c1nc(Cl)c(N)nc1N; 1.03
CCCCC1C(=O)N(c2ccccc2)N(c2ccc(O)cc2)C1=O (stereo unspecified); 1.03
CC(C)(C)NCC(O)c1cc(Cl)c(N)c(Cl)c1 (stereo unspecified); 1

The recorded normalized growth for Cc1cc(C2CCCCC2)n(O)c(=O)c1 is 0.0814

The recorded normalized growth for NC(=O)CN1CCCC1=O is 0.982

The recorded normalized growth for C[C@]12C=CC(=O)C=C1CCC1C2[C@@H](O)C[C@@]2(C)C1CC[C@]2(O)C(=O)COP(=O)(O)O (stereo partly specified) is 1.02

The recorded normalized growth for CN[C@@H]1C(O)[C@@H](O[C@@H]2[C@@H](O)[C@H](O[C@H]3OC(CN)=CC[C@H]3N)[C@@H](N)C[C@H]2N)OC[C@]1(C)O (stereo partly specified) is 0.992

The recorded normalized growth for OCC(O)C(O)C(O)C(O)C(O)CO (stereo unspecified) is 0.99

The recorded normalized growth for O=c1ccc2cc(OC3OC(CO)C(O)C(O)C3O)c(O)cc2o1 (stereo unspecified) is 1.04

----------
- Assay Details: chemical genetic growth profiling, strain panel (AID 1159580);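 note: tested at 20 µM; growth read once vehicle control cultures reached saturation at 30 °C; 1 = growth at the plate median or of vehicle wells; lower values mean less growth of the strain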
- Test Conditions: S. cerevisiae deletion strains, growth OD, locus YFL009W, strain cdc4, stronger effect = lower value
Among all 5,500 compounds or so, about 2,000 (36%) were called active. About 18% were inconclusive and are not listed. The list shows a part of the results.
Readout Kind: normalized growth
No unit in the answer, only the number.

Cc1nnc2n1N=C(c1ccc(CC(C)C)cc1)C(C)S2 (centres undefined); 0.971
O=C1Nc2ccccc2/C1=C\c1ccc(Cl)cc1; 0.942
CCOC(=O)N/N=C\c1cc(Cl)cc(Cl)c1O; 0.94

The recorded normalized growth for O=[N+]([O-])c1cc(Cl)cc([N+](=O)[O-])c1Nc1ccccc1 is 0.917

----------
- Assay Details: chemical genetic growth profiling, strain panel (AID 1159580);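 note: tested at 20 µM; growth read once vehicle control cultures reached saturation at 30 °C; 1 = growth at the plate median or of vehicle wells; lower values mean less growth of the strain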
- Test Conditions: S. cerevisiae deletion strains, growth OD, locus YKL085W, strain MDH1 (second series), stronger effect = lower value
About 2,000 (36%) of roughly 5,500 compounds were called active. Roughly 18% stayed inconclusive and do not appear here. This is one part of the list.
With a cut-off of 1, any normalized growth strictly below it is called Fulfilled; any normalized growth meeting it or above is called Not fulfilled.

Example entries begin here.
CC(C)c1c(O)ccc2c1CCC1C(C)(C)CCC[C@]21C (stereo partly specified); Fulfilled
CC[n+]1c(-c2ccccc2)c2cc(N)ccc2c2ccc(N)cc21; Fulfilled
COc1ccc2c(c1)CCC1C2CC[C@@]2(C)C1CC[C@@H]2O (stereo partly specified); Fulfilled

Then there is this compound:
Say whether its normalized growth is strictly beneath 1. Entry: CC(C)c1c(O)c(-c2cc3c(c(C(C)C)c2O)CCC2C(C)(C)CCC[C@]32C)cc2c1CCC1C(C)(C)CCC[C@]21C (stereo partly specified)
Not fulfilled
